Hello, the source for this data is patent US20250163127A1, in case you need it.

Substrate: ICOS (Homo sapiens (Human)) (UniProt Q9Y6W8)
Sequence (Q9Y6W8 21-199 limits assumed): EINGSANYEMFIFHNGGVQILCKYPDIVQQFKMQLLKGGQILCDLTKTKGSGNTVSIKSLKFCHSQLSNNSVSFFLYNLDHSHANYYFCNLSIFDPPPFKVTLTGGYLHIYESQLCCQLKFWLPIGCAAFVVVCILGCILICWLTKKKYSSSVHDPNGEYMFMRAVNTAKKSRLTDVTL
Assay Overview: flow cytometry, transfected cells
Reported Property: MFI

{"columns": ["Binder", "MFI"],
 "data": [
  ["ICOSL-Fc N52A/N57H/Q100S (Fc fusion) DTQEKEVRAMVGSDVELSCACPEGSRFDLNDVYVYWQTSESKTVVTYHIPQASSLEHVDSRYRNRALMSPAGMLRGDFSLRLFNVTPQDEQKFHCLVLSSSLGFQEVLSVEVTLHVAANFSVPVVSAPHSPSQDELTFTCTSINGYPRPNVYWINKTDNSLLDQALQNDTVFLNMRGLYDVVSVLRIARTPSVNIGCCIENVLLQQNLTVGSQTGNDIGERDKITENPVSTGEKNAAT", "305000 MFI"]
]}

query: Entry under review: ICOSL-Fc N52G/N57V/Q100G (Fc fusion) DTQEKEVRAMVGSDVELSCACPEGSRFDLNDVYVYWQTSESKTVVTYHIPQGSSLEVVDSRYRNRALMSPAGMLRGDFSLRLFNVTPQDEQKFHCLVLSGSLGFQEVLSVEVTLHVAANFSVPVVSAPHSPSQDELTFTCTSINGYPRPNVYWINKTDNSLLDQALQNDTVFLNMRGLYDVVSVLRIARTPSVNIGCCIENVLLQQNLTVGSQTGNDIGERDKITENPVSTGEKNAAT . Reported MFI?
result: 260000 MFI
